parameter_measured: melting point

Would you please look over these solved cases?
[[record]]
molecule = "N=C(Cc1ccccc1)N1CC2C(=O)CCC(c3ccccc3)(c3ccccc3)C2C1 (stereo unspecified)"
parameter_measured = "melting point"
experimental_value = "195 °C"

[[record]]
molecule = "CC(C)c1nc(Cc2ccccc2)c2c(c1O)COC2"
parameter_measured = "melting point"
experimental_value = "232 to 233 °C"

[[record]]
molecule = "O=S(=O)(CCCl)c1ccc(Cl)cc1"
parameter_measured = "melting point"
experimental_value = "91 °C"

[[record]]
molecule = "Cc1csc(C)c1N(N)C(=O)CN"
parameter_measured = "melting point"
experimental_value = "68 to 70 °C"

[[record]]
molecule = "O=C(O)c1cc(OCc2ccsc2)c(-c2ccccc2)c([N+](=O)[O-])c1"
parameter_measured = "melting point"
experimental_value = "184 to 186 °C"


Please look at this molecule and report its melting point: N=C(NC(=O)OCc1ccccc1)N(C(=O)OCc1ccccc1)C1CCC(CCN2CCN(c3ccccc3)CC2)CC1 (stereo unspecified)
136 to 137 °C

Item O=C(NO)c1ccc(CNC(=O)c2[nH]c(-c3ccccc3)cc2-c2ccc(O)cc2)cc1 : provide melting point
139 to 141 °C

----------
Listed next: entries and their corresponding melting point.
Field: numeric (°C). Do not append units.

Examples with their reported melting point follow.
[[record]]
molecule = "CC(=O)NN=C(C)c1ccncc1"
parameter_measured = "melting point"
unit_string = "°C"
experimental_value = 178

[[record]]
molecule = "COc1ccc(Br)cc1S(=O)(=O)NC(C)(C)CO"
parameter_measured = "melting point"
unit_string = "°C"
experimental_value = 168

[[record]]
molecule = "Cc1c(-c2cccc(F)c2)nc2n1CCc1ccccc1C2OC1CCN(C)CC1 (stereo not given)"
parameter_measured = "melting point"
unit_string = "°C"
experimental_value = 132


Report melting point, nothing else, for this molecule: Cc1cc(-c2noc(C)c2-c2ccc(S(C)(=O)=O)c(F)c2)ccc1-c1cscn1
99.5

----------
parameter_measured: melting point

Examples from the recorded data:
[[record]]
compound = "Cc1ccc(S(=O)(=O)N(C)c2ccc(Cl)cc2S(C)=O)cc1 (centres undefined)"
parameter_measured = "melting point"
experimental_value = "142 to 144 °C"

[[record]]
compound = "CCOP(=O)(Cc1ccc(NC(=O)/C=C/c2cnoc2-c2ccccc2)cc1)OCC"
parameter_measured = "melting point"
experimental_value = "173 to 174 °C"

[[record]]
compound = "CC(C)c1ccc(C(Cl)=NO)cc1"
parameter_measured = "melting point"
experimental_value = "61 to 63 °C"

[[record]]
compound = "CN(C)Cc1nnc2n1-c1ccc([N+](=O)[O-])cc1C(c1ccccc1)=[N+]([O-])C2"
parameter_measured = "melting point"
experimental_value = "228 to 230 °C"

[[record]]
compound = "CC(=O)OC1CSC(Oc2ccc3ccn(C(=O)OC(C)(C)C)c3c2)C(OC(C)=O)C1OC(C)=O (centres undefined)"
parameter_measured = "melting point"
experimental_value = "147 to 158 °C"


Consider the compound Nc1sc(-c2cc(F)cc(F)c2)c(CN(C2CCCCC2)C2CCCCC2)c1C(=O)c1ccc(Cl)cc1 and give its recorded melting point.
163 to 166 °C

Write down melting point measured for item COc1ccc(Cn2nc(-c3ccc(OC)cc3)c(-c3ccncc3)cc2=O)cc1
143 °C

Provide measured melting point value, entry: COC(=O)Nc1cn2cc(S(=O)(=O)c3ccccc3)ccc2n1
300 °C

Using known records, supply melting point for CN(Cc1ccc(NC(=O)C2=Cc3cc(Br)ccc3S(=O)(=O)CC2)cc1)C1CCOCC1
232 to 235 °C
